Tested on: SF-539 CNS
method: NCI-60 one-dose screen, 48 h (100 = growth as untreated, 0 = no growth, -100 = all killed)
conditions: 10 µM unless noted
About 83,000 compounds went through this panel and 20% of them were active in at least one assay; those are over-represented in the sample as a whole.
Hi, to clarify the labels: satisfied covers growth from 80% upward, not satisfied covers anything below 80%.

{"compound": "COc1cccc(C(=O)Cn2cc(/C=C(\\C#N)S(=O)(=O)c3ccccc3)c3ccccc32)c1", "answer_label": "satisfied"}

Please tell me: is the compound COc1ccc(-c2nc(-c3ccccn3)c(-c3ccccn3)n2CC(C)C)cc1OC1CCCC1 at or over 80% in terms of growth?
not satisfied

Consider next the compound COc1ccc(Cn2cc(Cn3cc(C=C4C(=O)NC(=O)NC4=O)c4ccccc43)nn2)cc1 in the same way.
satisfied

Consider next the compound O=S1(=O)N(Cc2ccccc2)[C@@H](Cc2ccccc2)C2O[C@H]2[C@H](Cc2ccccc2)N1Cc1ccccc1 (some centres not stated) in the same way.
not satisfied

Consider next the compound Cc1nn(-c2nc3ccccc3[nH]2)c2c1C(c1ccc(OCC(N)=O)cc1)CC(=O)N2 (configuration not stated) in the same way.
satisfied

Consider next the compound COCCN(C(=O)Cc1cccs1)C(C(=O)NCc1ccc(OC)cc1)c1ccc(C(C)C)cc1 (configuration not stated) in the same way.
satisfied

----------
Tested on: HOP-62 NSCLC
method: NCI-60 one-dose screen, 48 h (100 = growth as untreated, 0 = no growth, -100 = all killed)
conditions: 10 µM unless noted
About 83,000 compounds went through this panel and 20% of them were active in at least one assay; those are over-represented in the sample as a whole.
// returns F unless growth is strictly below 40%, in which case T

{"molecule": "C#CCn1cc(C=C2C(=O)N(C)C(=O)N(C)C2=O)c2cc(Cl)ccc21", "target": "HOP-62 NSCLC", "answer_label": "F"}

Strictly below 40% in growth? Cc1c(-c2noc(-c3ccc([N+](=O)[O-])cc3)n2)no[n+]1[O-]
F

Consider next the molecule Cc1nn(-c2nc3ccccc3[nH]2)c2c1C(c1ccc(OCC(N)=O)cc1)CC(=O)N2 (stereo not given) in the same way.
F

Consider next the molecule Cc1nc2ccccc2c(/C=C/c2ccccc2)c1C(=O)/C=C/c1ccc(Cl)cc1 in the same way.
T

Consider next the molecule CCN(CC)CCNC(=O)C(Cl)=C1C(Cl)=C(Cl)C(Cl)=C1Cl in the same way.
F

Consider next the molecule O=C(Nc1ccc(F)cc1F)c1cc(Cl)ccc1O in the same way.
T

Consider next the molecule O=C(Cc1ccccc1)NC(c1ccc(Cl)cc1)c1c(O)ccc2ccccc12 (stereo not given) in the same way.
T

Consider next the molecule COc1cc(/C(C#N)=C/c2nc3c(N4CCOCC4)nc(Cl)nc3n2C)cc(OC)c1OC in the same way.
T

----------
Tested on: SR leukemia
method: NCI-60 one-dose screen, 48 h
conditions: 10 µM unless noted
The panel holds about 83,000 compounds, 20% with a hit somewhere; the sample as a whole holds those more often. Active and inactive are the calls of the source. How the source made its calls: active means growth percent below 10; inactive means the rest.
// allowed return values: True = active, False = inactive

{"molecule": "O=C(NCc1ccccc1)C1CN(c2ccc(Cl)cc2)N(c2ccc(Cl)cc2)C1=O (stereo unspecified)", "target": "SR leukemia", "answer_label": "False"}
{"molecule": "COC(=O)/C(CCC=C(C)C)=C1\\[C@@H](OC(C)=O)C[C@@]2(C)[C@H]1CC(=O)N[C@H]1[C@@]3(C)CCNC(=O)[C@@H](C)[C@@H]3CC[C@@]12C", "target": "SR leukemia", "answer_label": "False"}
{"molecule": "COc1ccc(Cn2c(Br)c3c(c2-c2cc(OC)c(OC)c(OC)c2)CCc2sc(NC(C)=O)nc2-3)cc1", "target": "SR leukemia", "answer_label": "False"}
{"molecule": "CCOC(=O)c1cnc2ccc(Cl)cc2c1NCCCN(C)C", "target": "SR leukemia", "answer_label": "True"}
{"molecule": "Nc1no[n+]([O-])c1-c1nnc2c(n1)-c1ccccc1C2=O", "target": "SR leukemia", "answer_label": "True"}

For the next question, use this molecule.
Answer briefly: the call reported for CCN1C(=O)N(CC)C2C1NN=c1s/c(=C3\C(=O)N(CC(C)(C)C)c4ccccc43)c(=O)n12 (stereo unspecified) in this assay.
True
